FYI, the data here is from the RNAGym collection of RNA variant scans (doi:10.7554/elife.80360).

B1: HDV Ribozyme (parent)
chain: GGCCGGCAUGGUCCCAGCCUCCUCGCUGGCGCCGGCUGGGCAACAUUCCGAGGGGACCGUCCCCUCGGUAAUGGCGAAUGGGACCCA

# Variants of: B1
# measurement.description: self-cleavage, relative activity (ratio to wild type); higher = more cleavage; co-transcriptional
Measured self-cleavage by item
Lab note: jot down the number only; don't add units.

As a guide, the following entries are already answered.
mutation.label	self-cleavage
A16U U60G	1.15
G17A G68C	0.575
A70U A78C	0.0941
C22U G38U	0.149

Record U23G G82A . Reported self-cleavage: 0.0449

Record G11C C49G . Reported self-cleavage: 0.0504

Record U37G G76C . Reported self-cleavage: 0.142
